Molecular target: Neutrophil collagenase (Homo sapiens, UniProt P22894)
Sequence (P22894 whole entry): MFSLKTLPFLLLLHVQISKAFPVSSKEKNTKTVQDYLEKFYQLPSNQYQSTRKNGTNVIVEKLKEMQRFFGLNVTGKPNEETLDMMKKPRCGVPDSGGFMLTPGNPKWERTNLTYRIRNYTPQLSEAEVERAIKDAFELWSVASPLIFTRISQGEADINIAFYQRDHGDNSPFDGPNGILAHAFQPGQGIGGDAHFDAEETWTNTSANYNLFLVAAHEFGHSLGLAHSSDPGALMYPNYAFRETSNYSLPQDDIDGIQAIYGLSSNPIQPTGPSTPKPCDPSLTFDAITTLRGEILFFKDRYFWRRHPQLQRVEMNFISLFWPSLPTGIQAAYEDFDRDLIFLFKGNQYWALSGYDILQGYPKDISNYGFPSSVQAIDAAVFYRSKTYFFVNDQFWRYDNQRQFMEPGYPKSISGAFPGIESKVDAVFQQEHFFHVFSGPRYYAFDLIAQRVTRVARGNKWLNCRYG
Experiment: Inhibition of recombinant human […]-activated MMP8 using Cy3-PLGLK(Cy5Q)AR-NH2 as substrate measured after 40 mins by spectrofluorimetric method
I'd appreciate it if you could supply pIC50 values for the items below.
Answers are plain numbers, as −log10 of the molar value.

CC(=O)N(O)C(CS(=O)(=O)c1ccc(-c2cccc(CNC(=O)c3nc4ccccc4c(=O)[nH]3)c2)cc1)C(C)C (centres undefined) ... 6.96
O=C(NCc1cccc(N2CCN(C(=O)Cc3nnn[nH]3)CC2)c1)c1nc2ccccc2c(=O)[nH]1 ... 7.49

Below: the item to evaluate.
Given the compound CC(C)[C@H](NS(=O)(=O)c1ccc(-c2cccc(CNC(=O)c3nc4ccccc4c(=O)[nH]3)c2)cc1)C(=O)NO , what is its reported pIC50? 9.09

* * *

Biological target: Disintegrin and metalloproteinase domain-containing protein 17 (Homo sapiens, UniProt P78536)
Sequence (P78536 whole entry, the tested form may be a part): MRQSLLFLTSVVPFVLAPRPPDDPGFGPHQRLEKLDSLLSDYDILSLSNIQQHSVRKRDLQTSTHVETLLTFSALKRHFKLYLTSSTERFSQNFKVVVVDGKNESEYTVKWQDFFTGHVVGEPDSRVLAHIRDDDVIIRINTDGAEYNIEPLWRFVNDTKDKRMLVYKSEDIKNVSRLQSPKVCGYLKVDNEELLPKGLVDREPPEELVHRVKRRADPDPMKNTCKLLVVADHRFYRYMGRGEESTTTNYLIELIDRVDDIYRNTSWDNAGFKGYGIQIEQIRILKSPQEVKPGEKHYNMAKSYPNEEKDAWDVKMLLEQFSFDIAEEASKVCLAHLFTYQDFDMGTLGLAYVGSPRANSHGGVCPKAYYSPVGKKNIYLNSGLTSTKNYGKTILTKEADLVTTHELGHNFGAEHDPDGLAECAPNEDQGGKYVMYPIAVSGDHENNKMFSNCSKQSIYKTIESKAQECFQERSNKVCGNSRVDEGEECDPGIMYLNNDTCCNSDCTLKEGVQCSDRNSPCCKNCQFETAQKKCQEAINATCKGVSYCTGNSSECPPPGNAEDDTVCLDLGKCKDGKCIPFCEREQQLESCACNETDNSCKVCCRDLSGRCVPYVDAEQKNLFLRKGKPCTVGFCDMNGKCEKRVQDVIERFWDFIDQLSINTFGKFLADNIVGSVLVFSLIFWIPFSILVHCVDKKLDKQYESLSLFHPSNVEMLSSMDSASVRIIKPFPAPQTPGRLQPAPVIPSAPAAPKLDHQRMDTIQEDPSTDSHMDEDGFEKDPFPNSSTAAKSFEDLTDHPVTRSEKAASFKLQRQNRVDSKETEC
Test: Inhibition of recombinant human TACE using Cy3-PLAQAV(Cy5Q-L-2,3-diaminopropionic acid)-RSSSR-NH2 as substrate measured after 40 mins by spectrofluorimetric method
Please go through the items and note down their IC50.

O=C(NCc1cccc(N2CCN(C(=O)Cc3n[nH]c(=O)[nH]3)CC2)c1)c1nc2ccccc2c(=O)[nH]1 ... > 10 µM
CC(C)[C@H](NS(=O)(=O)c1ccc(-c2cccc(CNC(=O)c3nc4ccccc4c(=O)[nH]3)c2)cc1)C(=O)NO ... > 10 µM
O=C(NCc1cccc(-c2ccc(CS(=O)(=O)Cc3n[nH]c(=O)[nH]3)cc2)c1)c1nc2ccccc2c(=O)[nH]1 ... > 10 µM

Please look at the following compound next.
Name the reported IC50 value associated with the compound CC(C)[C@H](NS(=O)(=O)c1ccc(-c2cccc(CNC(=O)c3nc4ccccc4c(=O)[nH]3)c2)cc1)C(=O)O > 10 µM

* * *

Target: Matrix metalloproteinase-14 (Homo sapiens, UniProt P50281)
Assay: Inhibition of recombinant human GST-tagged MMP14 using Cy3-PLGLK(Cy5Q)AR-NH2 as substrate measured after 40 mins by spectrofluorimetric method
Metric: log10(IC50) (log10 of the value in nM)
Lab note - IC50 converted to log10 from values in nM.

CC(C)[C@H](NS(=O)(=O)c1ccc(-c2cccc(CNC(=O)c3nc4ccccc4c(=O)[nH]3)c2)cc1)C(=O)NO ... 0.58
CC(C)[C@H](NS(=O)(=O)c1ccc(-c2cccc(CNC(=O)c3nc4ccccc4c(=O)[nH]3)c2)cc1)C(=O)O ... 2.15
O=C(NCc1cccc(N2CCN(C(=O)Cc3n[nH]c(=O)[nH]3)CC2)c1)c1nc2ccccc2c(=O)[nH]1 ... 3.95
O=C(NCc1cccc(OCCCS(=O)(=O)N2CCCCC2C(=O)NO)c1)c1nc2ccccc2c(=O)[nH]1 (stereo not drawn) ... 2.74
CCOCCC1(Oc2ccc(-c3cccc(CNC(=O)c4nc5ccccc5c(=O)[nH]4)c3)cc2)C(=O)NC(=O)NC1=O ... 3.57

Fill blank: measured log10(IC50) of the molecule CC(C)C(CS(=O)(=O)c1ccc(-c2cccc(CNC(=O)c3nc4ccccc4c(=O)[nH]3)c2)cc1)N(O)C=O (stereo not drawn) is ____. 0.73

* * *

Target: 72 kDa type IV collagenase (Homo sapiens)
Sequence (P08253 whole entry): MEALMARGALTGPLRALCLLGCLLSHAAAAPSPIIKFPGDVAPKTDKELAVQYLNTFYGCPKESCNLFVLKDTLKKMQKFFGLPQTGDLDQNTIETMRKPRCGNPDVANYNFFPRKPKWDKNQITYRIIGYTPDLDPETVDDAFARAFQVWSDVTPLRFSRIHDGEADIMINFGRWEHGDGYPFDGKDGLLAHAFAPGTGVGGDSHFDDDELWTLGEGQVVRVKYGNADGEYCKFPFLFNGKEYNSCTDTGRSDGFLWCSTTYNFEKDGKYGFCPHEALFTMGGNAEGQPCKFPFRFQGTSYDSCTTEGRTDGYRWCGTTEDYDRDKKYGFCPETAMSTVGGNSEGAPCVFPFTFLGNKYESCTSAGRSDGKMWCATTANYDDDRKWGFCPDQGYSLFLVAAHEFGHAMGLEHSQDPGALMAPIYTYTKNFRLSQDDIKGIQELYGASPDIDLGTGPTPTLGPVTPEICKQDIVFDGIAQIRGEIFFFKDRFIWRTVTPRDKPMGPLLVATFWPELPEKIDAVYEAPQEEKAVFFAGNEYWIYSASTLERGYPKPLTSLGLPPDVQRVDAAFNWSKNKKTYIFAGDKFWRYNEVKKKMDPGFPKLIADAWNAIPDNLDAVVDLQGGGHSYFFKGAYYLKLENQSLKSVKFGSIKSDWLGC
Experiment: Inhibition of recombinant human […]-activated MMP2 using Cy3-PLGLK(Cy5Q)AR-NH2 as substrate measured after 40 mins by spectrofluorimetric method
So basically, if IC50 comes in under 100 nM it's MET, and if it's 100 nM or more it's NOT MET.

Some entries whose results are on file:
O=C(NCc1cccc(OCCCOc2nc[nH]n2)c1)c1nc2scc(-c3cccc(Cl)c3)c2c(=O)[nH]1 ... NOT MET
CC(C)C(CS(=O)(=O)c1ccc(-c2cccc(CNC(=O)c3nc4ccccc4c(=O)[nH]3)c2)cc1)N(O)C=O (stereo not drawn) ... MET
CC(=O)N(O)C(CS(=O)(=O)c1ccc(-c2cccc(CNC(=O)c3nc4ccccc4c(=O)[nH]3)c2)cc1)C(C)C (stereo not drawn) ... MET
CC(C)C(CS(=O)(=O)c1ccc(-c2cccc(CNC(=O)c3nc4ccccc4c(=O)[nH]3)c2)cc1)N(O)C(N)=O (stereo not drawn) ... MET
O=C(NCc1cccc(OCCCS(=O)(=O)N2CCCCC2C(=O)O)c1)c1nc2ccccc2c(=O)[nH]1 (stereo not drawn) ... MET

Kindly review the next compound as well.
Could you please tell me whether IC50 recorded for O=C(NCc1cccc(N2CCN(C(=O)Cc3cc(=O)[nH][nH]3)CC2)c1)c1nc2ccccc2c(=O)[nH]1 is less than 100 nM? MET

Ref: ChEMBL document CHEMBL3867480
